Recorded values, source PubChem BioAssay (NCI).

Test system: MCF7 breast
experiment: NCI-60 one-dose screen, 48 h
testParameters: 10 µM unless noted
This is part of a sample that, as a whole, favours compounds with a hit. Of some 83,000 tested, about 20% had one in any assay. Active and inactive are the calls of the source. How the source made its calls: active means growth percent below 10; inactive means the rest.
Answer with one of the outcomes given here: active, inactive

Below, 4 compounds whose answers are already recorded.
compound="CC1C=CC(OC(=O)C(C)(O)CCC(O)(C(=O)OC2CC(O)C(C(C)C)CC2(C)O)C(C)C)(C(C)C)CC1 (stereo not given)" labelclass=active
compound="C#CC#CC#CC#CC#CC#CC#CC#CCC1OC[C@H](COC(=O)O[C@@H](C(=O)O[C@H]2C[C@@]3(O)[C@@H](OC(=O)c4ccccc4)[C@@H]4[C@]5(OC(C)=O)CO[C@@H]5C[C@H](O)[C@@]4(C)C(=O)[C@H](OC(C)=O)C(=C2C)C3(C)C)[C@@H](NC(=O)c2ccccc2)c2ccccc2)O1 (stereo not given in full)" labelclass=inactive
compound=O=C(O)[C@@H](Cc1ccc2ccccc2c1)NC(=O)n1c2ccccc2c2ccccc21 labelclass=inactive
compound=Cc1nnc(-c2ccc3c(c2)nc(/C=C/c2ccccc2)n3C2CCCCC2)o1 labelclass=inactive

Continue with the compound presented below.
Ask | For this compound, state the assay outcome: CC(C)CCN(CCC(C)C)CC(O)c1cc2c(c3ccccc13)CCCC2 (stereo not given)
Reply | inactive
